The entries below are paired with their reported bioavailability.
test: Oral bioavailability in Alderley Park Han Wistar rat at 1 mg/kg using HPMC/tween suspension; assay type: ADME, organism-based; conditions: in vivo
quantity_measured: bioavailability (%)

| chem_smiles | quantity_measured | quantitative_result |
| --- | --- | --- |
| Cc1cc(F)ccc1-c1c(Oc2ccc(/C=C/C(=O)O)cc2)c2ccccc2oc1=O | bioavailability | 47 |
| Cc1cc(OC(F)(F)F)ccc1-c1c(Oc2ccc(/C=C/C(=O)O)cc2)c2ccccc2oc1=O | bioavailability | 35 |

---

assay: Dissociation constant, pKa of the compound by potentiometric analysis […] phenol; type: physicochemical
Please note: Satisfied applies when pKa is 8 or greater, and Not satisfied applies otherwise.

| chem_smiles | group_label |
| --- | --- |
| Cc1cc(F)ccc1-c1c(Cc2ccc(/C=C/C(=O)O)cc2)c2ccc(O)cc2oc1=O | Not satisfied |
| Cc1c(O)ccc2c(Cc3ccc(/C=C/C(=O)O)cc3)c(-c3ccc(OC(F)(F)F)cc3)c(=O)oc12 | Satisfied |
| Cc1cc2c(Cc3ccc(/C=C/C(=O)O)cc3)c(-c3ccc(OC(F)(F)F)cc3)c(=O)oc2cc1O | Not satisfied |
| Cc1cc(F)ccc1-c1c(Oc2ccc(/C=C/C(=O)O)cc2)c2ccc(O)cc2oc1=O | Not satisfied |

---

Listing of recorded logD by entry.
assay: Octanol-buffer partition coefficient, log D of the compound at ratio of 1:100 at pH 7.4 by shake-flask method; type: physicochemical

| chem_smiles | logD |
| --- | --- |
| O=C(O)/C=C/c1ccc(Cc2c(-c3ccc(OC(F)(F)F)cc3)c(=O)oc3ccccc23)cc1 | 2.8 |
| Cc1cc(F)ccc1-c1c(Oc2ccc(/C=C/C(=O)O)cc2)c2ccccc2oc1=O | 2 |
| O=C(O)/C=C/c1ccc(Cc2c(-c3ccc(F)cc3F)c(=O)oc3cc(O)ccc23)cc1 | 1.7 |
| Cc1cc(OC(F)(F)F)ccc1-c1c(Cc2ccc(/C=C/C(=O)O)cc2)c2ccc(O)cc2oc1=O | 3.1 |
| Cc1cc(F)ccc1-c1c(Oc2ccc(/C=C/C(=O)O)cc2)c2ccc(O)cc2oc1=O | 1.6 |
| Cc1cc(F)ccc1-c1c(-c2ccc(/C=C/C(=O)O)cc2)c2ccc(O)cc2oc1=O | 2 |
| Cc1cc(OC(F)(F)F)ccc1-c1c(Oc2ccc(/C=C/C(=O)O)cc2)c2ccc(O)cc2oc1=O | 2.1 |
| O=C(O)/C=C/c1ccc(Cc2c(-c3ccc(Cl)cc3)c(=O)oc3cc(O)ccc23)cc1 | 2.4 |
| COc1ccc(-c2c(Cc3ccc(/C=C/C(=O)O)cc3)c3ccc(O)cc3oc2=O)cc1 | 1.9 |

---

assay: Oral bioavailability in Alderley Park Han Wistar rat at 2 mg/kg using propylene glycol solution; type: ADME, organism-based; details: in vivo
quantity_measured: bioavailability (%)

| chem_smiles | quantity_measured | quantitative_result |
| --- | --- | --- |
| O=C(O)/C=C/c1ccc(Cc2c(-c3ccccc3)c(=O)oc3cc(O)ccc23)cc1 | bioavailability | 0 |

---

test: Clearance in CD-1 mouse at 0.5 mg/kg, iv; type: ADME, organism-based; set-up: dose 0.5 mg/kg, route intravenous; conditions: in vivo

| chem_smiles | unit_annotation | clearance |
| --- | --- | --- |
| O=C(O)/C=C/c1ccc(Cc2c(-c3ccccc3)c(=O)oc3cc(O)ccc23)cc1 | mL/min/kg | 210 |

---

assay: Free plasma concentration in rat by LC-UV-MS analysis; assay type: ADME, cell-free
fraction unbound by entry:

| chem_smiles | relation_qualifier | fraction unbound |
| --- | --- | --- |
| CC/C(=C(\c1ccccc1)c1ccc(/C=C/C(=O)O)cc1)c1ccccc1 | < | 0.0001 |
| Cc1cc(F)ccc1-c1c(Oc2ccc(/C=C/C(=O)O)cc2)c2ccc(O)cc2oc1=O | = | 0.0051 |
| Cc1cc(OC(F)(F)F)ccc1-c1c(Oc2ccc(/C=C/C(=O)O)cc2)c2ccc(O)cc2oc1=O | = | 0.0037 |
| Cc1cc(F)ccc1-c1c(Oc2ccc(/C=C/C(=O)O)cc2)c2ccccc2oc1=O | = | 0.014 |
| O=C(O)/C=C/c1ccc(Cc2c(-c3ccccc3)c(=O)oc3cc(O)ccc23)cc1 | = | 0.0098 |
| Cc1cc(OC(F)(F)F)ccc1-c1c(Oc2ccc(/C=C/C(=O)O)cc2)c2ccccc2oc1=O | = | 0.0032 |
| CC/C(=C(\c1ccc(O)cc1)c1ccc(/C=C/C(=O)O)cc1)c1ccccc1 | = | 0.0009 |

---

experiment: Free plasma concentration in human by LC-UV-MS analysis; type: ADME, cell-free
Please note: Yes applies when fraction unbound is 0.003 or greater, and No applies otherwise.

| chem_smiles | group_label |
| --- | --- |
| CC/C(=C(\c1ccccc1)c1ccc(/C=C/C(=O)O)cc1)c1ccccc1 | No |
| Cc1cc(F)ccc1-c1c(Oc2ccc(/C=C/C(=O)O)cc2)c2ccccc2oc1=O | Yes |
| O=C(O)/C=C/c1ccc(Cc2c(-c3ccccc3)c(=O)oc3cc(O)ccc23)cc1 | Yes |
| Cc1cc(OC(F)(F)F)ccc1-c1c(Oc2ccc(/C=C/C(=O)O)cc2)c2ccccc2oc1=O | No |
| Cc1cc(OC(F)(F)F)ccc1-c1c(Oc2ccc(/C=C/C(=O)O)cc2)c2ccc(O)cc2oc1=O | No |
| Cc1cc(F)ccc1-c1c(Oc2ccc(/C=C/C(=O)O)cc2)c2ccc(O)cc2oc1=O | No |

---

Recorded measurements of logD, one per entry
assay: Octanol-buffer partition coefficient, log D of the compound at ratio of 1:100 at pH 7.4 by shake-flask method; assay type: physicochemical
quantity_measured: logD

| chem_smiles | quantitative_result |
| --- | --- |
| Cc1cc(F)ccc1-c1c(Oc2ccc(/C=C/C(=O)O)cc2)c2cc(F)c(O)cc2oc1=O | 0.8 |
| COc1ccc2c(Cc3ccc(/C=C/C(=O)O)cc3)c(-c3ccc(OC(F)(F)F)cc3)c(=O)oc2c1 | 3 |
| O=C(O)/C=C/c1ccc(Cc2c(-c3ccccc3)c(=O)oc3cc(O)ccc23)cc1 | 1.5 |
| O=C(O)/C=C/c1ccc(Cc2c(-c3ccc(OC(F)(F)F)cc3)c(=O)oc3cc(O)ccc23)cc1 | 2.8 |
| Cc1cc(OC(F)(F)F)ccc1-c1c(Oc2ccc(/C=C/C(=O)O)cc2)c2ccc(C(F)F)cc2oc1=O | 3 |
| Cc1cc(F)ccc1-c1c(Oc2ccc(/C=C/C(=O)O)cc2)c2ccc(O)c(F)c2oc1=O | 0.6 |
| O=C(O)/C=C/c1ccc(Cc2c(-c3ccc(OC(F)(F)F)cc3)c(=O)oc3cc(F)ccc23)cc1 | 2.5 |
| O=C(O)/C=C/c1ccc(Cc2c(-c3ccc(C(F)(F)F)cc3)c(=O)oc3cc(O)ccc23)cc1 | 2.6 |
| Cc1cc(OC(F)(F)F)ccc1-c1c(Oc2ccc(/C=C/C(=O)O)cc2)c2ccccc2oc1=O | 2.5 |
| Cc1cc(F)ccc1-c1c(Cc2ccc(/C=C/C(=O)O)cc2)c2c(F)cc(O)cc2oc1=O | 1.6 |
| Cc1cc(F)ccc1-c1c(Cc2ccc(/C=C/C(=O)O)cc2)c2ccc(N)cc2oc1=O | 1.7 |
| Cc1c(O)ccc2c(Cc3ccc(/C=C/C(=O)O)cc3)c(-c3ccc(OC(F)(F)F)cc3)c(=O)oc12 | 3.4 |
| COc1cccc(-c2c(Cc3ccc(/C=C/C(=O)O)cc3)c3ccc(O)cc3oc2=O)c1 | 1.9 |
| Cc1cc(F)ccc1-c1c(Cc2ccc(/C=C/C(=O)O)cc2)c2ccc(O)cc2oc1=O | 2.1 |
| O=C(O)/C=C/c1ccc(Cc2c(-c3cccc(OC(F)(F)F)c3)c(=O)oc3cc(O)ccc23)cc1 | 2.9 |
| Cc1cc(F)ccc1-c1c(Cc2ccc(/C=C/C(=O)O)cc2)c2ccc(CO)cc2oc1=O | 1.2 |
| Cc1cc2c(Cc3ccc(/C=C/C(=O)O)cc3)c(-c3ccc(OC(F)(F)F)cc3)c(=O)oc2cc1O | 3.1 |
| COc1cc(F)ccc1-c1c(Cc2ccc(/C=C/C(=O)O)cc2)c2ccc(O)cc2oc1=O | 1.8 |

---

experiment: Oral bioavailability in CD-1 mouse at 20 mg/kg using propylene glycol suspension; assay type: ADME, organism-based; conditions: in vivo

| chem_smiles | unit_annotation | bioavailability |
| --- | --- | --- |
| O=C(O)/C=C/c1ccc(Cc2c(-c3ccccc3)c(=O)oc3cc(O)ccc23)cc1 | % | 0 |

---

Here, each record is paired with measured Vd data.
assay: Volume of distribution at steady state in CD-1 mouse at 0.5 mg/kg, iv; assay type: ADME, organism-based; set-up: dose 0.5 mg/kg, route intravenous; details: in vivo, read-out: Vdss

| chem_smiles | Vd / L/kg |
| --- | --- |
| O=C(O)/C=C/c1ccc(Cc2c(-c3ccccc3)c(=O)oc3cc(O)ccc23)cc1 | 4.7 |
| CC/C(=C(\c1ccccc1)c1ccc(/C=C/C(=O)O)cc1)c1ccccc1 | 1.1 |
